Recorded inhibition at 1 µM by entry
SYSTEM TESTED: HPK1 (MAP4K1) (Homo sapiens)
METHOD DESCRIPTION: FRET Assay for HPK1 (MAP4K1): one step binding assay, displacement of labeled tracer
SETUP CONDITIONS: 1 μM compound; FRET ratio 665/620, percent of control
Answer with a number only, understood to be in %.

Exercise: So what's the measured inhibition at 1 µM for this one? "C/C(Nc1ccn(C(C)(C)CO)n1)=C1/C(=O)Nc2cnc(-c3cnccc3C)cc21"
Key: 79.4

Exercise: So what's the measured inhibition at 1 µM for this one? "C/C(Nc1cnn([C@H](C)C#N)c1)=C1/C(=O)Nc2cnc(-c3cnccc3C)cc21"
Key: 85

Exercise: So what's the measured inhibition at 1 µM for this one? "C/C(Nc1cc(C)n(C(C)(C)C#N)n1)=C1/C(=O)Nc2cnc(-c3cnccc3C)cc21"
Key: 69.8

Exercise: So what's the measured inhibition at 1 µM for this one? "C/C(Nc1cc(C)n(C(F)F)n1)=C1/C(=O)Nc2cnc(-c3cnccc3C)cc21"
Key: 73.2

Exercise: So what's the measured inhibition at 1 µM for this one? "C/C(Nc1cc(C)n(CCC(C)(C)O)n1)=C1/C(=O)Nc2cnc(-c3c(C)cccc3F)cc21"
Key: 67.6

Exercise: So what's the measured inhibition at 1 µM for this one? "COc1cccc(F)c1-c1cc2c(cn1)NC(=O)/C2=C(/C)Nc1ccc(N2CCNCC2)cn1"
Key: 79.6

Exercise: So what's the measured inhibition at 1 µM for this one? "COc1cccc(F)c1-c1ccc2c(c1)/C(=C(\C)Nc1ccccc1)C(=O)N2"
Key: 62.5

Exercise: So what's the measured inhibition at 1 µM for this one? "C/C(Nc1cc(C)n(C)n1)=C1/C(=O)Nc2cnc(-c3cnccc3C)cc21"
Key: 76.4

Exercise: So what's the measured inhibition at 1 µM for this one? "CCOc1cccc(F)c1-c1cc2c(cn1)NC(=O)/C2=C(/C)Nc1ccc(N2CCNCC2)nc1"
Key: 87.8

Exercise: So what's the measured inhibition at 1 µM for this one? "C/C(Nc1cnn(CC2CC2)c1)=C1/C(=O)Nc2cnc(-c3cnccc3C)cc21"
Key: 74

* * *

SYSTEM TESTED: HPK1 (MAP4K1) (Homo sapiens, UniProt Q92918)
Sequence (Q92918 whole entry): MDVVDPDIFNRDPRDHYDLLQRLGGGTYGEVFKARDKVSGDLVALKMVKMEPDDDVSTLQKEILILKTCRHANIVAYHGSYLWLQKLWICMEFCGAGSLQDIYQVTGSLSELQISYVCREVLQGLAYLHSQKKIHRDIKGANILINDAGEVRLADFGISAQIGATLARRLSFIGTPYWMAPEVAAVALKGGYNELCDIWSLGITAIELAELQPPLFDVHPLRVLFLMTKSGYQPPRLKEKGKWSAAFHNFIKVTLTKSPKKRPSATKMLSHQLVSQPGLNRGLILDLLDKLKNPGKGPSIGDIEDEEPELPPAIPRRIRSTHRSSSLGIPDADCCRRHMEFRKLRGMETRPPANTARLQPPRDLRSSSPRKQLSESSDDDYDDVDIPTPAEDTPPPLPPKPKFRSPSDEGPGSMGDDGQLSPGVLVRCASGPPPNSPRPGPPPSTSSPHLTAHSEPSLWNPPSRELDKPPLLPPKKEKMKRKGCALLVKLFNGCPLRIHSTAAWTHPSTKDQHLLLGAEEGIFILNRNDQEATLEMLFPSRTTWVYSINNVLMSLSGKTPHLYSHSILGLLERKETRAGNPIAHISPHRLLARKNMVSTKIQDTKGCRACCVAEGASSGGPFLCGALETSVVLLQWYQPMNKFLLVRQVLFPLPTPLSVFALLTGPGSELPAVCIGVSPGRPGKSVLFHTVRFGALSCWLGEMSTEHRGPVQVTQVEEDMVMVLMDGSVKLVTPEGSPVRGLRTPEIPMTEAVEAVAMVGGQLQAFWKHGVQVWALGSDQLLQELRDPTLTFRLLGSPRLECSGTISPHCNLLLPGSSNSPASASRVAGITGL
METHOD DESCRIPTION: FRET Assay for HPK1 (MAP4K1): one step binding assay, displacement of labeled tracer
SETUP CONDITIONS: 1 μM compound; FRET ratio 665/620, percent of control
TEST READOUT: inhibition at 1 µM (%)
Answer with a number only, understood to be in %.

CCOc1cccc(F)c1-c1cc2c(cn1)NC(=O)/C2=C(/C)Nc1ccc(N2CCNCC2)cc1 [Example 34]: 81.7
COc1ccncc1-c1cc2c(cn1)NC(=O)/C2=C(/C)Nc1cnn(C)c1 [Example 33]: 91.6
C/C(Nc1cnn(CC(F)(F)F)c1)=C1/C(=O)Nc2cnc(-c3cnccc3C)cc21 [Example 69]: 67
Cc1ccncc1-c1cc2c(cn1)NC(=O)/C2=C(\Nc1cnn(C)c1)C(C)C [Example 48]: 77.2
C/C(Nc1cc(C)n(C)n1)=C1/C(=O)Nc2cnc(-c3c(C)cccc3F)cc21 [Example 191]: 69.6
C/C(Nc1cnn(CCC(C)(C)O)c1)=C1/C(=O)Nc2cnc(-c3cnccc3C)cc21 [Example 166]: 62.9
C/C(Nc1ccn(C2(C#N)CC2)n1)=C1/C(=O)Nc2cnc(-c3cnccc3C)cc21 [Example 102]: 81.6
C/C(Nc1cc2n(n1)CCOC2)=C1/C(=O)Nc2ccc(-c3cnccc3C)cc21 [Example 193]: 78.2
C/C(Nc1ccn(C(F)F)n1)=C1/C(=O)Nc2cnc(-c3cnccc3C)cc21 [Example 81]: 73.8

Exercise: So what's the measured inhibition at 1 µM for this one? CCOc1cccc(F)c1-c1cc2c(cn1)NC(=O)/C2=C(/C)Nc1cnn(CC)c1 [Example 22]
Key: 86.6

* * *

SYSTEM TESTED: HPK1 (MAP4K1) (Homo sapiens)
METHOD DESCRIPTION: FRET Assay for HPK1 (MAP4K1): one step binding assay, displacement of labeled tracer
SETUP CONDITIONS: 10 μM compound; FRET ratio 665/620, percent of control
Recorded inhibition at 10 µM by entry
Answer with a number only, understood to be in %.

Exercise: So what's the measured inhibition at 10 µM for this one? "C/C(Nc1cnn(CC(F)F)c1)=C1/C(=O)Nc2cnc(-c3cnccc3C)cc21"
Key: 81.3

Exercise: So what's the measured inhibition at 10 µM for this one? "C/C(Nc1ccn(CC(C)(C)O)n1)=C1/C(=O)Nc2cnc(-c3cnccc3C)cc21"
Key: 79.8

Exercise: So what's the measured inhibition at 10 µM for this one? "C/C(Nc1ccn(C(C)(C)C#N)n1)=C1/C(=O)Nc2cnc(-c3c(C)cccc3F)cc21"
Key: 80.8

* * *

Recorded inhibition at 10 µM by entry
SYSTEM TESTED: HPK1 (MAP4K1) (Homo sapiens, UniProt Q92918)
METHOD DESCRIPTION: FRET Assay for HPK1 (MAP4K1): one step binding assay, displacement of labeled tracer
SETUP CONDITIONS: 10 μM compound; FRET ratio 665/620, percent of control
Answer with a number only, understood to be in %.

Worked cases, inhibition at 10 µM given:
CCn1cc(N/C(C)=C2\C(=O)Nc3cnc(-c4cnccc4C)cc32)cn1: 87.9
C/C(Nc1ccc(N2CCN(C3COC3)CC2)nc1)=C1/C(=O)Nc2cnc(-c3cnccc3C)cc21: 80.3
C/C(Nc1ccn(C)n1)=C1/C(=O)Nc2cnc(-c3cnccc3C)cc21: 86.1
C/C(Nc1ccc(C)nc1)=C1/C(=O)Nc2cnc(-c3cnccc3C)cc21: 88.2
C/C(Nc1ccn(C(C)C)n1)=C1/C(=O)Nc2cnc(-c3cnccc3C)cc21: 78.6

Exercise: So what's the measured inhibition at 10 µM for this one? "C/C(Nc1ccc(OC2CCNCC2)nc1)=C1/C(=O)Nc2cnc(-c3cnccc3C)cc21"
Key: 70.4

Exercise: So what's the measured inhibition at 10 µM for this one? "C/C(Nc1cnn(CC(C)(C)O)c1)=C1/C(=O)Nc2cnc(-c3cnccc3C)cc21"
Key: 83.1

Exercise: So what's the measured inhibition at 10 µM for this one? "C/C(Nc1cc(C)nn1C)=C1/C(=O)Nc2cnc(-c3cnccc3C)cc21"
Key: 80.9

Exercise: So what's the measured inhibition at 10 µM for this one? "C/C(Nc1ccn(CC[C@@H](C)O)n1)=C1/C(=O)Nc2cnc(-c3cnccc3C)cc21"
Key: 84.3

* * *

Recorded IC50 values (HPK1 (MAP4K1) (Homo sapiens)) are given below.

Worked cases, IC50 given:
C/C(Nc1cc2n(n1)CCOC2)=C1/C(=O)Nc2cnc(-c3cc(F)ccc3C)cc21: < 50 nM
C/C(Nc1ccn(C2(C#N)CC2)n1)=C1/C(=O)Nc2cnc(-c3cnccc3C)cc21: < 50 nM

Exercise: So what's the measured IC50 for this one? "CNC(=O)c1cc(N/C(C)=C2\C(=O)Nc3cnc(-c4cnccc4C)cc32)nn1C"
Key: < 50 nM

Exercise: So what's the measured IC50 for this one? COc1cccc(F)c1-c1cc2c(cn1)NC(=O)/C2=C(/C)Nc1cnn(C(C)C#N)c1 (stereo not drawn)
Key: < 50 nM

Exercise: So what's the measured IC50 for this one? "C/C(Nc1cnn(CC[C@@H](C)O)c1)=C1/C(=O)Nc2cnc(-c3cnccc3C)cc21"
Key: < 50 nM

Exercise: So what's the measured IC50 for this one? "COc1cccc(F)c1-c1cnc2c(c1)/C(=C(\C)Nc1cnn(C)c1)C(=O)N2"
Key: 100 to 500 nM

Exercise: So what's the measured IC50 for this one? "COc1cccc(F)c1-c1ccc2c(c1)/C(=C(\C)Nc1ccccc1)C(=O)N2"
Key: 100 to 500 nM

Exercise: So what's the measured IC50 for this one? "C/C(Nc1ccn([C@@H](C)CO)n1)=C1/C(=O)Nc2cnc(-c3cnccc3C)cc21"
Key: < 50 nM

Exercise: So what's the measured IC50 for this one? "C/C(Nc1cc(C)n(C[C@@H](C)O)n1)=C1/C(=O)Nc2cnc(-c3c(C)cccc3F)cc21"
Key: < 50 nM

* * *

SYSTEM TESTED: HPK1 (MAP4K1) (Homo sapiens)
METHOD DESCRIPTION: FRET Assay for HPK1 (MAP4K1): one step binding assay, displacement of labeled tracer
SETUP CONDITIONS: 1 μM compound; FRET ratio 665/620, percent of control
Recorded inhibition at 1 µM by entry
Answer with a number only, understood to be in %.

Worked cases, inhibition at 1 µM given:
C/C(Nc1ccc(N2CCOCC2)cn1)=C1/C(=O)Nc2cnc(-c3cnccc3C)cc21: 72.3
C/C(Nc1ccn([C@@H](C)CO)n1)=C1/C(=O)Nc2cnc(-c3cnccc3C)cc21: 83.6
CCn1cc(N/C(C)=C2\C(=O)Nc3cnc(-c4c(F)cccc4OC)cc32)cn1: 87.4
C/C(Nc1ccn(C(C)(C)C(N)=O)n1)=C1/C(=O)Nc2cnc(-c3cnccc3C)cc21: 59
CNC(=O)C(F)(F)n1ccc(N/C(C)=C2\C(=O)Nc3cnc(-c4cnccc4C)cc32)n1: 65.1
CC/C(Nc1cnn(C)c1)=C1/C(=O)Nc2cnc(-c3c(F)cccc3OC)cc21: 90.3

Exercise: So what's the measured inhibition at 1 µM for this one? "C/C(Nc1cnn(C)c1)=C1/C(=O)Nc2cnc(-c3cccnc3C)cc21"
Key: 74.7

Exercise: So what's the measured inhibition at 1 µM for this one? "C/C(Nc1cnn(C)c1)=C1/C(=O)Nc2cnc(-c3c(C)cccc3F)cc21"
Key: 60.9

Exercise: So what's the measured inhibition at 1 µM for this one? "C/C(Nc1ccn(CC(=O)N(C)C)n1)=C1/C(=O)Nc2cnc(-c3cnccc3C)cc21"
Key: 79.2

Numbers sourced from patent US20230009626A1.
